tested on: Transient receptor potential cation channel subfamily V member 1 (Rattus norvegicus, UniProt O35433)
Sequence (O35433 whole entry): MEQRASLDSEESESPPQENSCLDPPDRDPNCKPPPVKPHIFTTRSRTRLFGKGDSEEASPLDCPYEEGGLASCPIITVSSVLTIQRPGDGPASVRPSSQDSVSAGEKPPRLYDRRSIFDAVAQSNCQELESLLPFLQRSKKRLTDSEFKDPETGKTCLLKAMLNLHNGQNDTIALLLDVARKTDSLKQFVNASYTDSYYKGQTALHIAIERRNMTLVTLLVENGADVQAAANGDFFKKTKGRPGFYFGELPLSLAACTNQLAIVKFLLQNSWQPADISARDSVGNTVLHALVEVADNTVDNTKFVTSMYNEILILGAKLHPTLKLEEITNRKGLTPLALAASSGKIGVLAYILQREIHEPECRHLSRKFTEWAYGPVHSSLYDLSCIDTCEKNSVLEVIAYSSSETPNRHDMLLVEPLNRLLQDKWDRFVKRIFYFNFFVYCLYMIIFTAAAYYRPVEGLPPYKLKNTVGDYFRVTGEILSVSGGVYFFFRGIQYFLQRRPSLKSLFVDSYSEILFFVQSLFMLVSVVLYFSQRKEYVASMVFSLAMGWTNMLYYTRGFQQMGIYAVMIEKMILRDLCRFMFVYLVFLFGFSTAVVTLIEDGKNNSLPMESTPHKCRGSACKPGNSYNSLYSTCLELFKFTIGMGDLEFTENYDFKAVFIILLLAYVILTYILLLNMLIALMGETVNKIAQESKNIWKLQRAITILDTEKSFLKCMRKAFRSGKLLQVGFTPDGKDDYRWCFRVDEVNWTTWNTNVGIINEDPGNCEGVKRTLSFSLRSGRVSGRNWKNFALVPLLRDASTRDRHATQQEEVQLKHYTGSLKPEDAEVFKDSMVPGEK
measurement description: Antagonist activity at rat TRPV1 receptor expressed in CHO cells assessed as decrease in capsaicin-induced intracellular 45Ca2+ uptake after 1 hr by […] analysis
Assay type: functional, cell-based
quantity kind: pKi
Recall that pKi is obtained by taking minus log10 of the concentration measured in molar.

Let me know recorded pKi for "C[C@H](C(=O)NCc1ccc(C(C)(C)C)cc1)c1ccc(NS(C)(=O)=O)c(F)c1" , thanks.
8.38

Let me know recorded pKi for Cc1cc(C(C)C(=O)NCc2ccc(C(C)(C)C)cc2)ccc1NS(C)(=O)=O (centres undefined) , thanks.
7.72

Let me know recorded pKi for "C[C@@H](C(=O)NCc1ccc(C(C)(C)C)cc1)c1ccc(NS(C)(=O)=O)c(F)c1" , thanks.
6.73

Let me know recorded pKi for CC(C(=O)NCc1ccc(C(C)(C)C)cc1)c1ccc(NS(C)(=O)=O)c(F)c1 (racemic) , thanks.
8.12
